Below, each entry is listed with its recorded IC50 at 72 h.
- System: HT-29
- Test name: XTT viability assay
- Type: cell-based, human
- Test context: HT-29, 3 days
Reported endpoint: IC50 at 72 h

* CC1=CC(O/C=C2/C(=O)c3c(c4cc(-c5cccs5)ccc4n3C)C2C)OC1=O (stereo not drawn) [ST-357] | >15 ppm
* CC1=CC(O/C=C2\Cc3c(n(C)c4ccc(-c5ccc(N(C)C)cc5)cc34)C2=O)OC1=O (racemic) [EG-9c] | >15 ppm
* CC1=CC(O/C=C2\Cc3c(n(C)c4ccccc34)C2=O)OC1=O (racemic) [EG-5] | >15 ppm
